tested on: NCI-H522 lung; experiment: NCI-60 one-dose screen, 48 h (100 = growth as untreated, 0 = no growth, -100 = all killed); details: 10 µM unless noted
The panel holds about 83,000 compounds, 20% with a hit somewhere; the sample as a whole holds those more often.
Readout Label: growth (%)
Report the figure in % without appending any unit label.

Q. Item `CCCCCCN1CSC(=S)N(CCCCCC)C1` with NCI-H522 lung - growth?
A. 101

Q. Item `COc1cc(/C=C/C(=O)N2CCN(C(=O)/C=C/c3cc(OC)c(OC)c(OC)c3)CC2)cc(OC)c1OC` with NCI-H522 lung - growth?
A. 87.5

Q. Item `CCCCNC(=O)Oc1ccc(/C(=C(\C)c2ccccc2)c2ccc(OCCN(CC)CC)cc2)cc1` with NCI-H522 lung - growth?
A. 53.4

Q. Item `Clc1cc2c(nn1)Nc1ccccc1S2` with NCI-H522 lung - growth?
A. 56.5

Q. Item Cc1nc2c3c(ncn2n1)Oc1c(c(=O)[nH]c2ccccc12)C3c1ccc(Cl)cc1 (stereo not given) with NCI-H522 lung - growth?
A. 87.6

Q. Item `COc1ccc(S(=O)(=O)NCCCNc2nccc(-c3c(-c4cccc([N+](=O)[O-])c4)nc4sccn34)n2)cc1` with NCI-H522 lung - growth?
A. 32.4

Q. Item `O=C(O)c1nc(-c2ccccc2)oc1N1CCOCC1` with NCI-H522 lung - growth?
A. 95.9

Q. Item `COc1ccc(NC(=O)c2c(Nc3ccc(OC)cc3OC)n[nH]c2N)c(OC)c1` with NCI-H522 lung - growth?
A. 79.3

Q. Item `COc1ccc(N=Cc2c(O)ccc3c2oc2cc(Cl)c(O)c(Cl)c23)cc1` with NCI-H522 lung - growth?
A. 68.1

Q. Item `CCOc1cc2c(Cl)ncnc2c(OCC)c1OCC` with NCI-H522 lung - growth?
A. 58.8

Q. Item CC(NNC(C)c1ccccc1)c1ccccc1 (stereo not given) with NCI-H522 lung - growth?
A. 93.9

Q. Item `COc1ccc2c(c1)[nH]c(=O)c1c3cc(OC)ccc3cn21` with NCI-H522 lung - growth?
A. 13

Q. Item `COc1ccc(Nc2nn3c(-c4ccccc4)cc(-c4ccccc4)nc3c2C(N)=O)c(OC)c1` with NCI-H522 lung - growth?
A. 34.8

Q. Item `O=c1[nH]c(Nc2ccc(S(=O)(=O)O)cc2)nc2nc(Nc3ccc(NC(=S)Nc4ccccc4)cc3)nc(-c3ccc(O)cc3O)c12` with NCI-H522 lung - growth?
A. 91.9

Q. Item `COc1ccc2c(c1)[nH]c(=O)c1c3cc(C)c(C)cc3cn21` with NCI-H522 lung - growth?
A. -55.8

----------
tested on: HCT-116 colon; test: NCI-60 one-dose screen, 48 h (100 = growth as untreated, 0 = no growth, -100 = all killed); details: 10 µM unless noted
Compounds without any hit were thinned out: in the full panel of roughly 83,000, 20% have a hit.
# if value of growth reaches 30%, tag Met; if it stays below, tag Not met

Q. hey, is growth for this one >= 30%? `O=C(Nc1ccc(Cl)c(Cl)c1)NS(=O)(=O)c1cnccc1Oc1ccc(F)cc1`
A. Met

Q. hey, is growth for this one >= 30%? `CCC(=O)Oc1ccc(/C(=C(/C)Cc2cccc(OC)c2)c2ccc(OCCN(C)C)cc2)cc1`
A. Met

Q. hey, is growth for this one >= 30%? COc1ccc(/C=C2/C(=O)NC(SCC(=O)N3CCN(c4cc5c(cc4F)c(=O)c(C(=O)O)cn5C4CC4)CC3)=NC2N)cc1OC (stereo not given)
A. Met

Q. hey, is growth for this one >= 30%? `CCOC(=O)C1=C(C)NC(C)=C(C(=O)OCC)C1(C)C`
A. Met

Q. hey, is growth for this one >= 30%? `C=CCSc1n[nH]c(-c2cccs2)n1`
A. Met

Q. hey, is growth for this one >= 30%? `Cc1ccc(/C=C2\CN(C(=O)CCN3CCC(=NO)CC3)C/C(=C\c3ccc(C)cc3)C2=O)cc1`
A. Not met

Q. hey, is growth for this one >= 30%? `CCCCCCCC[C@@H](O)CC(=O)N[C@@H](CC(N)=O)C(=O)N[C@@H](CCC(N)=O)C(=O)N[C@@H](CC(=O)c1cc(C)cc(O)c1C(=O)c1c(O)cccc1O)CC(C)C`
A. Not met

Q. hey, is growth for this one >= 30%? `CCOc1cc2c(Cl)ncnc2c(OCC)c1OCC`
A. Met

Q. hey, is growth for this one >= 30%? C=C1CCC2C(C)(CO)C(O)CCC2(C)C1C/C=C1/C(=O)OCC1Oc1ccccc1C (stereo not given)
A. Met

Q. hey, is growth for this one >= 30%? `CN(CCCCN(C[C@H]1Cc2ncccc2CN1)[C@H]1CCCc2cccnc21)C1CCC(F)(F)CC1`
A. Met

Q. hey, is growth for this one >= 30%? COc1ccc(C2C=C(c3ccc(N)cc3)N=C3SC=CN32)cc1OC (stereo not given)
A. Met

Q. hey, is growth for this one >= 30%? `NNc1cccc(/C=C/c2ccccc2)cc1=O`
A. Met

Q. hey, is growth for this one >= 30%? `COc1ccc(-c2cc(-c3ccccc3)nc(SCCCC(=O)NO)n2)cc1OC`
A. Not met

----------
tested on: CCRF-CEM leukemia; test: NCI-60 one-dose screen, 48 h; conditions: 10 µM unless noted
This is part of a sample that, as a whole, favours compounds with a hit. Of some 83,000 tested, about 20% had one in any assay. The source made the active and inactive calls. Rule for the calls: active = growth percent below 10; inactive = the rest.
Pick one and only one: active, inactive

Q. # outcome recorded in this test, key = `COc1ccc(/C=C(\C#N)c2cc(OC)c3c(c2)OCO3)cc1`
A. inactive

Q. # outcome recorded in this test, key = `O=S(=O)(NCCCNc1nccc(-n2ccc3cccnc32)n1)c1ccc(Br)cc1`
A. inactive

Q. # outcome recorded in this test, key = `Brc1cccc(-c2cc(-c3ccc4nccnc4c3)[nH]n2)c1`
A. inactive

Q. # outcome recorded in this test, key = C=C1CCC2C3(C)COC(C)(C)OC3CCC2(C)C1C/C=C1/C(=O)OCC1Oc1ccccc1OC (configuration not stated)
A. inactive

Q. # outcome recorded in this test, key = `Cc1ccc(S(=O)(=O)n2cc(C(=O)C(=O)N3CCOCC3)c3ccccc32)cc1`
A. inactive

Q. # outcome recorded in this test, key = C=C1CCC2C3(C)COC(c4ccc(N(C)C)cc4)OC3CCC2(C)C1C/C=C1/C(=O)OCC1O (configuration not stated)
A. active

Q. # outcome recorded in this test, key = `COc1cc2c(cc1O)CCN1C[C@@H](CC(C)C)[C@@H](O)C[C@@H]21`
A. inactive

Q. # outcome recorded in this test, key = `COc1cc(-c2nn(-c3cccc(NC(=O)Nc4cccc(C(F)(F)F)c4)c3)cc2-c2ccncc2)ccc1Cl`
A. active

Q. # outcome recorded in this test, key = `Cc1cccc(/C=N/Nc2cc(C)c3cccc(C)c3n2)n1`
A. inactive

Q. # outcome recorded in this test, key = `O=C(N/N=C/C=C\c1ccccc1)C(=O)N/N=C/C=C/c1ccccc1`
A. inactive

Q. # outcome recorded in this test, key = COc1ccc(C2C=C(c3ccc(Cl)cc3)N=C3SC=C(C)N32)c(Br)c1 (configuration not stated)
A. active

Q. # outcome recorded in this test, key = `O=C1c2ccccc2-c2ccccc2C1(Cl)Cl`
A. inactive

----------
test system: OVCAR-4 ovarian; test: NCI-60 one-dose screen, 48 h; settings: 10 µM unless noted
About 83,000 compounds went through this panel and 20% of them were active in at least one assay; those are over-represented in the sample as a whole. The source made the active and inactive calls. Rule for the calls: active = growth percent below 10; inactive = the rest.
Pick one and only one: active, inactive

Q. # outcome recorded in this test, key = CCN(CC)CCCC(C)Nc1c2ccc(Cl)cc2nc2cc(OC)c(OC)cc12 (centres undefined)
A. active

Q. # outcome recorded in this test, key = `O=C1/C(=C/c2ccc([N+](=O)[O-])cc2)CN(C(=O)CCN2CCC(=NO)CC2)C/C1=C\c1ccc([N+](=O)[O-])cc1`
A. active

Q. # outcome recorded in this test, key = `O=C(CCl)N(C1CCCCC1)C1CCCCC1`
A. inactive

Q. # outcome recorded in this test, key = `c1ccc(-c2nc(N3CCNCC3)c3nc(-c4ccccc4)oc3n2)cc1`
A. active

Q. # outcome recorded in this test, key = `O=C(/C=C/c1ccccc1)c1cccc(O)c1`
A. inactive

Q. # outcome recorded in this test, key = `Fc1ccc(Nc2nc(NCCNc3ccnc4cc(Cl)ccc34)nc(N3CCOCC3)n2)cc1`
A. inactive

Q. # outcome recorded in this test, key = `Nc1cccc(Cl)c1N`
A. inactive

Q. # outcome recorded in this test, key = Oc1ccccc1/C=N/NC(=S)NC1CC2C=CC1C2 (centres undefined)
A. inactive

Q. # outcome recorded in this test, key = `C=C1c2nc3ccccc3n2C=C(c2ccc(Cl)cc2)N1Cc1ccccc1`
A. active

Q. # outcome recorded in this test, key = `ClC(Cl)c1nc(-c2ccccc2)nc2cc(-c3ccccc3)nn12`
A. inactive

Q. # outcome recorded in this test, key = `COc1cc(C(=O)/C=C/c2c(C)n([O-])c3ccc(C(F)(F)F)cc3[n+]2=O)cc(OC)c1OC`
A. inactive

Q. # outcome recorded in this test, key = `COc1ccc(-c2nc3sccn3c2/C=C/C(=O)c2cc(F)cc(F)c2)cc1`
A. inactive

Q. # outcome recorded in this test, key = `COc1cccc(-c2nc3sccn3c2-c2ccnc(NCCCNS(=O)(=O)c3ccc(C(F)(F)F)cc3)c2)c1`
A. inactive

Q. # outcome recorded in this test, key = `C/C(=C\c1ccc(OCC(=O)O)c(Cl)c1Cl)[N+](=O)[O-]`
A. inactive
